Measured pIC50 on Acetylcholinesterase (Homo sapiens, UniProt P22303) follows.
Sequence (P22303 whole entry): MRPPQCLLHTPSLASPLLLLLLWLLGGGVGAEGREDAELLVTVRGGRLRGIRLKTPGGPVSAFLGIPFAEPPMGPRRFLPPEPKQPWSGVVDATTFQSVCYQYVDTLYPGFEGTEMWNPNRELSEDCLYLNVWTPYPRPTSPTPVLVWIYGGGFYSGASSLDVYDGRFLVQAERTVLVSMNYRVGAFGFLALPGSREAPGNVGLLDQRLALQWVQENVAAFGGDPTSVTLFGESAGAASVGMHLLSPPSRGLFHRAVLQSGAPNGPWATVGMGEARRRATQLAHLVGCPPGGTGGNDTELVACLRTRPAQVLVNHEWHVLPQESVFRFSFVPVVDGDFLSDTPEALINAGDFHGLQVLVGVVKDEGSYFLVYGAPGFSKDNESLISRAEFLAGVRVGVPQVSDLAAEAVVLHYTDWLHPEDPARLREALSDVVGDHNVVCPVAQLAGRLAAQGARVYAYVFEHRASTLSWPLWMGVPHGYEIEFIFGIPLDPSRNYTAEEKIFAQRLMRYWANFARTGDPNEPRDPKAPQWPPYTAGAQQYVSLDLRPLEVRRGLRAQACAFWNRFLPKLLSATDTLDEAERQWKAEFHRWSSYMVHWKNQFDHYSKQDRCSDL
The quantity pIC50 is defined as the negative base-10 logarithm of the molar concentration.

INSERT INTO results (compound, reportedmeasurement) VALUES
  ('COc1cc2ccnc(C(O)c3ccccc3OC)c2cc1OC (stereo not drawn)', 5.16),
  ('COc1ccc(Cc2nccc3cc(OC)c(OC)cc23)cc1OC', 4.61);

Now look at this entry.
Here COc1ccc(C(O)c2nccc3cc(OC)c(OC)cc23)cc1OC (stereo not drawn) was tested on Acetylcholinesterase (Homo sapiens, UniProt P22303), and its pIC50 came to 4.97

Just for reference, ChEMBL document CHEMBL1146949 is where these values come from.
